Molecular target: hY1 (Homo sapiens, UniProt P25929)
Construct: expressed in transfected cells
Sequence (P25929 1-384): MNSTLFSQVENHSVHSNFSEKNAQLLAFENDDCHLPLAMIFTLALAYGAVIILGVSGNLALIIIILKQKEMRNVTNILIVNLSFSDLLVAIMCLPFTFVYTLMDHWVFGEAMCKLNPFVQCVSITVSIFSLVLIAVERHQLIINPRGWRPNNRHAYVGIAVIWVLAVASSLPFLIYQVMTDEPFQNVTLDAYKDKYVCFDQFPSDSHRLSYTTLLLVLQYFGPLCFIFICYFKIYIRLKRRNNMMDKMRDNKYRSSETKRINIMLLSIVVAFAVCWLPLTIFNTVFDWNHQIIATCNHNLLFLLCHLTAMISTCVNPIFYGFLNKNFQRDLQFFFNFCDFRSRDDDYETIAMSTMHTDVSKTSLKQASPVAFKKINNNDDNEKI
Experiment: Inositol phosphate accumulation, COS-7 cells expressing hY1 and chimeric Gi/q protein
Type: cell-based
Conditions: agonist, inositol phosphate turnover, COS7 cells, 1 h stimulation, duplicate, at least two experiments
pEC50: −log10 of the molar value.
measuredProperty: pEC50

INSERT INTO measurements (substance, obsvalue) VALUES
  ('[K^30(PEG2)]hPP2‐36 (H-PLEPVYPGDNATPEQMAQYAADLRRYINK(MeO‑PEG 2 kDa)LTRPRY-NH2) [lysine 30 carries 2000 Da MeO-PEG]', '< 6.00');

Taken from paper PMC4882497.
